STUDY TARGET: Mas-related G-protein coupled receptor member X4 (Homo sapiens) (UniProt Q96LA9)
Sequence (Q96LA9 whole entry): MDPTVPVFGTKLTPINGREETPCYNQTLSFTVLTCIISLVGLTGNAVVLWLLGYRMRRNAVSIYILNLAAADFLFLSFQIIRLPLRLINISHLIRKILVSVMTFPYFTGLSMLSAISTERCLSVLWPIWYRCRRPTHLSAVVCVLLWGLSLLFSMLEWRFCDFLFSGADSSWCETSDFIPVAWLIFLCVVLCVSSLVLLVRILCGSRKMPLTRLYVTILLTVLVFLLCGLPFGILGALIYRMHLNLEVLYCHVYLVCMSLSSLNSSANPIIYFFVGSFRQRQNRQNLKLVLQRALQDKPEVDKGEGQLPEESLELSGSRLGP
PROCEDURE TEXT: Inverse agonist activity at recombinant human MrgprX4 expressed in HEK293 cells assessed as reduction in inositol phosphate accumulation incubated for 1 hr at 37 degC followed by incubation for 30 mins at room temperature by HTRF assay relative to baseline
Assay type: functional, cell-based
ENDPOINT LABEL: fold change (FC)
Give only the figure.

>>> data_value("Cc1nc(-c2ccnn2Cc2ccc(Cl)cc2)[nH]c1-c1ccccc1")
3

--- query ---
Incoming: GET fold change (FC) | system: Mas-related G-protein coupled receptor member X4 (Homo sapiens) (UniProt Q96LA9) | item: Cc1c(C(=O)NCc2ccccc2C(F)(F)F)ncn1Cc1ccc(Cl)cc1
Outgoing: 3

====

STUDY TARGET: Mas-related G-protein coupled receptor member X4 (Homo sapiens) (UniProt Q96LA9)
PROCEDURE TEXT: Antagonist activity at recombinant human MrgprX4 expressed in HEK293 cells assessed as blockade of bilirubin-induced inositol phosphate accumulation incubated for 1 hr at 37 degC followed by incubation for 30 mins at room temperature before bilirubin addition by HTRF assay relative to control
Assay type: functional, cell-based
ENDPOINT LABEL: inhibition (%)

>>> data_value("Cc1c(C(=O)NCc2ccccc2C(F)(F)F)ncn1Cc1ccc(Cl)cc1")
85
>>> data_value("O=C(NCc1cc2ccccc2[nH]1)c1cc(-c2ccccn2)nc2ccc(Br)cc12")
85
>>> data_value("Cc1nc(-c2ccnn2Cc2ccc(Cl)cc2)[nH]c1-c1ccccc1")
85
